The reader will find reported inhibition values listed item by item below.
Target: Proteasome component C5 (Homo sapiens)
Sequence (whole entry): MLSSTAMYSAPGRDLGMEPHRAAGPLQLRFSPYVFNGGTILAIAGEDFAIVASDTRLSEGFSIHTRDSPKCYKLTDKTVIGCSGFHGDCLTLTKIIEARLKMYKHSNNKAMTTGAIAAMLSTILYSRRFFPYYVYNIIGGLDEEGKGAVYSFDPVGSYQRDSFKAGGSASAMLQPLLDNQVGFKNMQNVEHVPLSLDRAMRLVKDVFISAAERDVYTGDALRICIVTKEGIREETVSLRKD
Assay: Inhibition of caspase-like activity 20S proteasome beta subunit 1 of human MCF7 cells using fluorogenic substrate Z-LLE-AMC at 10 uM after 1 hr by fluorescence analysis relative to control
Type: cell-based
Residues, ends and D or L forms follow the SMILES beside them. *: point of attachment. Cbz = O=C(OCc1ccccc1)*

{"columns": ["COMPOUND", "inhibition"],
 "data": [
  ["CC(C)C[C@@H](C=O)NC(=O)[C@H](CC(C)C)NC(=O)[C@H](CC(C)C)NC(=O)OCc1ccccc1 (Cbz-Leu-Leu-Leu-aldehyde)", "18.4%"],
  ["Cc1cccc(NC(=O)c2ccc(NC3=C(Cl)C(=O)c4ccccc4C3=O)cc2)c1", "15.1%"],
  ["O=C1C(Cl)=C(Nc2ccc(S(=O)(=O)Nc3cccnc3Cl)cc2)C(=O)c2ccccc21", "11.2%"],
  ["O=C(Nc1cccc(Cl)c1)c1ccc(NC2=C(Cl)C(=O)c3ccccc3C2=O)cc1", "11.7%"],
  ["O=C1C(Cl)=C(Nc2ccc(S(=O)(=O)Nc3ccc(Br)cc3)cc2)C(=O)c2ccccc21", "10%"],
  ["Cc1cccnc1NS(=O)(=O)c1ccc(NC2=C(Cl)C(=O)c3ccccc3C2=O)cc1", "9.01%"],
  ["O=C1C(Cl)=C(Nc2ccc(S(=O)(=O)Nc3ccccc3Cl)cc2)C(=O)c2ccccc21", "1.21%"],
  ["Cc1ccc(NC(=O)c2ccc(NC3=C(Cl)C(=O)c4ccccc4C3=O)cc2)nc1", "7.42%"],
  ["O=C1C(Cl)=C(Nc2ccc(S(=O)(=O)N3CCOCC3)cc2)C(=O)c2ccccc21", "16.2%"],
  ["COc1cc(NS(=O)(=O)c2ccc(NC3=C(Cl)C(=O)c4ccccc4C3=O)cc2)cc(OC)c1", "12%"],
  ["Cc1cc(NC(=O)c2ccc(NC3=C(Cl)C(=O)c4ccccc4C3=O)cc2)no1", "8.36%"],
  ["CCc1ccccc1NS(=O)(=O)c1ccc(NC2=C(Cl)C(=O)c3ccccc3C2=O)cc1", "13.9%"],
  ["O=C(Nc1ccc([N+](=O)[O-])cc1)c1ccc(NC2=C(Cl)C(=O)c3ccccc3C2=O)cc1", "22.8%"],
  ["Cc1ccnc(NS(=O)(=O)c2ccc(NC3=C(Cl)C(=O)c4ccccc4C3=O)cc2)c1", "3.35%"],
  ["O=C1C(Cl)=C(Nc2ccc(S(=O)(=O)Nc3ccc([N+](=O)[O-])cc3)cc2)C(=O)c2ccccc21", "14.1%"],
  ["O=C(Nc1cccnc1)c1ccc(NC2=C(Cl)C(=O)c3ccccc3C2=O)cc1", "1.2%"],
  ["O=C(Nc1ccc(Cl)cn1)c1ccc(NC2=C(Cl)C(=O)c3ccccc3C2=O)cc1", "8.55%"],
  ["O=C(Nc1ccccc1)c1ccc(NC2=C(Cl)C(=O)c3ccccc3C2=O)cc1", "10.7%"],
  ["Cc1ccnc(NC(=O)c2ccc(NC3=C(Cl)C(=O)c4ccccc4C3=O)cc2)c1", "8.37%"]
]}
